Tested on: P12-Ichikawa
Test: cell viability relative to DMSO control; higher = less cytotoxic
Conditions: HPLM + 10% dialyzed FBS; 48 h; 5.12 µM
cell viability overview
Numbers only; they are read as %.

CNC(=O)c1ccc2cc(C3(O)CCn4cncc43)ccc2c1 (stereo unspecified) : 108

So for `C[C@]12CCC(=O)C=C1CC[C@@H]1[C@@H]2[C@@H](O)C[C@@]2(C)[C@H]1CC[C@]2(O)C(=O)CO` , the logged cell viability turned out to be 89.7

cell viability reading for CC1=C(C)C(=O)C(C(CCCCCC(=O)O)c2ccccc2)=C(C)C1=O (stereo unspecified) : 86.2

The value of cell viability measured for the compound `C[C@]12CC[C@H]3[C@@H](CC[C@H]4NC(=O)\C=C/[C@]34C)[C@@H]1CC[C@@H]2C(=O)NC5=CC(=CC=C5C(F)(F)F)C(F)(F)F` turned out to be 91.3

Field cell viability (entry C[C@](Cc1c[nH]c2ccccc12)(NC(=O)OC1C2CC3CC(C2)CC1C3)C(=O)NC[C@H](NC(=O)CCC(=O)O)c1ccccc1 (stereo partly specified) ) reads 122

Memo: `O=C1[C@H](Cc2ccc(O)cc2)N2C(=O)CCN(C(=O)NCc3ccccc3)[C@H]2CN1Cc1cccc2ccccc12` , reported cell viability: 91.2

Documented cell viability of `CC(C)N[C@@H]1CCn2c(=O)[nH]c3cccc(c32)[C@H]1O` : 97.1

Measured cell viability, COc1ccccc1OCC(O)COC(N)=O (stereo unspecified) : 111

cell viability recorded for this compound, `Cc1onc(-c2ccccc2Cl)c1C(=O)N[C@@H]1C(=O)N2[C@@H]1SC(C)(C)[C@@H]2C(=O)[O-]` , is 110

// field: cell viability; key: `CC(C)(C)OC(=O)N[C@H]1CCCCC/C=C\[C@@H]2C[C@@]2(C(=O)N[S+](=O)([O-])C2CC2)NC(=O)[C@@H]2C[C@@H](OC(=O)N3Cc4cccc(F)c4C3)CN2C1=O` ; value = 108

// recorded cell viability for CC1CNc2c(cccc2[S+](=O)([O-])N[C@@H](CCCNC(=N)N)C(=O)N2CC[C@@H](C)C[C@@H]2C(=O)O)C1 (stereo partly specified) : 116

###

Test system: SEM cells
Assay: cell viability relative to DMSO control; higher = less cytotoxic
Conditions: RPMI 5 mM glucose + 10% dialyzed FBS; 48 h; 15.4 µM
We begin with a simple list: items and their reported cell viability.
Form entry: value (%) — number only.

Solved cases below.
CC(C)N[C@@H]1CCn2c(=O)[nH]c3cccc(c32)[C@H]1O : 125
Cc1coc2c1C(=O)C(=O)c1c-2ccc2c(C)cccc12 : 86.4
C[C@@H](Oc1cc(-c2cnn(C3CCNCC3)c2)cnc1N)c1c(Cl)ccc(F)c1Cl : 33.3
CC[C@]12CC[C@H]3[C@@H](CCC/4=C/C(=O)CC[C@H]34)[C@@H]1\C=C/[C@@]2(O)C#C : 118

From here, focus on the item given below.
So, `CN[C@H]1CCC2=CC(=C(OC)C(=C2C/3=C/C=C(OC)\C(=O)/C=C13)OC)OC` ? Its cell viability was 7.84

###

Test system: NOMO1
Assay: cell viability relative to DMSO control; higher = less cytotoxic
Conditions: RPMI 5 mM glucose + 10% FBS; 48 h; 15.4 µM
Values of cell viability strictly less than 90% map to yes, and values of at least 90% map to no.

Past entries and their recorded results:
Cc1ccccc1C(=O)c1ccc(Nc2ccc(Br)cc2N)cc1Cl : no
S=C(NCc1ccc2c(c1)OCO2)N1CCN(c2ncnc3c2oc2ccccc23)CC1 : yes
OC[C@@H](O)[C@@H](O)[C@H](O)[C@@H](O)CO : no
CC(C)OC(=O)/C1=C/N(CC(C)(C)C2=C1[NH]C3=CC=CC=C23)C(=O)C4=CC=C(F)C(=C4)F : yes
O=c1[nH]c2ccccc2n1CCCN1CCC(n2c(=O)[nH]c3cc(Cl)ccc32)CC1 : no
C[N]1C=C(C=N1)C2=C3\C=N/NC(=O)C4=C3C(=CC(=C4)NC(=O)[C@H](N)C5CCCCC5)[NH]2 : yes
CC(C)c1ccc2c(c1)c(SC(C)(C)C)c(CC(C)(C)C(=O)[O-])n2Cc1ccc(Cl)cc1 : yes
CC(C)c1nc(CN(C)C(=O)N[C@H](C(=O)N[C@@H](Cc2ccccc2)C[C@H](O)[C@H](Cc2ccccc2)NC(=O)OCc2cncs2)C(C)C)cs1 : yes

Now let's try a different one.
Given `C[C@@]12C(=O)OC(=O)[C@@]1(C)C1CCC2O1` , is recorded cell viability strictly lower than 90%?
yes

###

System: P12-Ichikawa
Experiment: cell viability relative to DMSO control; higher = less cytotoxic
Conditions: RPMI 5 mM glucose + 10% dialyzed FBS; 48 h; 5.12 µM
Measured cell viability of individual entries
The reply should contain only the number, in %.

// worked examples, cell viability included
CNC(=O)c1ccc2cc(C3(O)CCn4cncc43)ccc2c1 (configuration not stated) : 107
CNCCCC12CCC(c3ccccc31)c1ccccc12 : 86.5
CC[C@H](NC1=C2N=C[NH]C2=NC=N1)C/3=N/C4=C(C(=CC=C4)F)C(=O)N3C5=CC=CC=C5 : 91.7
CN1CCN(C2=Nc3cc(Cl)ccc3Nc3ccccc32)CC1 : 105

Reported cell viability of `CCC1(c2ccccc2)C(=O)NCNC1=O` : 126

// `CN[C@H]1CCC2=CC(=C(OC)C(=C2C/3=C/C=C(OC)\C(=O)/C=C13)OC)OC` : cell viability value = 9.48

###

Test system: NOMO1
Assay: AUC of viability dose-response curve (% viability x log10 dose units); higher = less sensitive
Conditions: HPLM + 10% dialyzed FBS; 48 h
readout label: AUC of viability dose-response curve
Would you mind answering with just the numeric figure?

Completed entries (count: 2):
Cc1onc(-c2ccccc2Cl)c1C(=O)N[C@@H]1C(=O)N2[C@@H]1SC(C)(C)[C@@H]2C(=O)[O-] : 455
CCN1\C=C(\C(O)=O)C(=O)C2=C1C=C(N3CCNCC3)C(=C2)F : 430

// recorded AUC of viability dose-response curve for CCc1ccc(CCOc2ccc(CC3SC(=O)NC3=O)cc2)nc1 (centres undefined) : 448

For record `COC(=O)Nc1nc2cc(C(=O)c3ccccc3)ccc2[nH]1` the listed AUC of viability dose-response curve is 401

Looking up `FC1=C(C=C(C\C2=N\NC(=O)C3=C2C=CC=C3)C=C1)C(=O)N4CCN(CC4)C(=O)C5CC5` , I found its AUC of viability dose-response curve recorded as 439

###

Tested on: P12-Ichikawa
Assay: cell viability relative to DMSO control; higher = less cytotoxic
Conditions: HPLM + 10% dialyzed FBS; 48 h; 0.00234 µM
readout label: cell viability (%)
Numeric answer only, unit % assumed.

Briefly, cell viability measured for `N#CCNC(=O)c1ccc(-c2ccnc(Nc3ccc(N4CCOCC4)cc3)n2)cc1` : 108

Per the record, `CN[C@H]1CCC2=CC(=C(OC)C(=C2C/3=C/C=C(OC)\C(=O)/C=C13)OC)OC` has cell viability of 113

Sure, the documented cell viability for `CCOC(=O)N1CCN(/[N+]([O-])=N/Oc2ccc([N+](=O)[O-])cc2C#N)CC1` is 106

###

Reported cell viability values for the following compounds.
Test system: P12-Ichikawa
Experiment: cell viability relative to DMSO control; higher = less cytotoxic
Settings: RPMI 5 mM glucose + 10% FBS; 48 h; 0.00234 µM

CC(C)N[C@@H]1CCn2c(=O)[nH]c3cccc(c32)[C@H]1O : 112%
CC(C)C1NC(=O)C(NC(=O)C2=C3\N=C\4/C(=C(C)\C(=O)\C(=C4C(=O)NC5C(C)OC(=O)C(C(C)C)N(C)C(=O)CN(C)C(=O)C6CCCN6C(=O)C(NC5=O)C(C)C)N)OC3=C(C)C=C2)C(C)OC(=O)C(C(C)C)N(C)C(=O)CN(C)C(=O)C7CCCN7C1=O (configuration not stated) : 8.99%
C[N]1C=C(C=N1)C2=C3\C=N/NC(=O)C4=C3C(=CC(=C4)NC(=O)[C@H](N)C5CCCCC5)[NH]2 : 101%
C[C@@H](Oc1cc(-c2cnn(C3CCNCC3)c2)cnc1N)c1c(Cl)ccc(F)c1Cl : 118%
COc1cc(F)c(F)c(Nc2ccc(I)cc2F)c1N[S+](=O)([O-])C1(C[C@H](O)CO)CC1 : 123%
O=c1[nH]c(=O)n([C@H]2C[C@H](O)[C@@H](CO)O2)cc1/C=C/Br : 107%

// cell viability lookup, compound = `NNCCc1ccccc1` , result: 115%

###

# cell viability listing for each entry below
System: P12-Ichikawa
Assay: cell viability relative to DMSO control; higher = less cytotoxic
Settings: HPLM + 10% dialyzed FBS; 48 h; 0.569 µM
Give your result in % as a bare value.

For orientation, consider the following solved cases.
C[C@@H]1COCCN1c1cc(C2([S@+](C)(=N)[O-])CC2)nc(-c2ccnc3[nH]ccc23)n1 : 99.8
CC(C)(O)CC[C@@H](O)[C@](C)(O)[C@H]1CC[C@@]2(O)C/3=C/C(=O)[C@@H]4C[C@@H](O)[C@@H](O)C[C@]4(C)[C@H]3CC[C@]12C : 88.6

Here is another compound to look at.
// CC(C)C1NC(=O)C(NC(=O)C2=C3\N=C\4/C(=C(C)\C(=O)\C(=C4C(=O)NC5C(C)OC(=O)C(C(C)C)N(C)C(=O)CN(C)C(=O)C6CCCN6C(=O)C(NC5=O)C(C)C)N)OC3=C(C)C=C2)C(C)OC(=O)C(C(C)C)N(C)C(=O)CN(C)C(=O)C7CCCN7C1=O (stereo not drawn) : cell viability value = 8.02
